TARGET OF ASSAY: DDR1 phosphorylation in T-47D (ATCC, HTB-133) cells (Homo sapiens, UniProt Q08345)
Sequence (Q08345 19-913): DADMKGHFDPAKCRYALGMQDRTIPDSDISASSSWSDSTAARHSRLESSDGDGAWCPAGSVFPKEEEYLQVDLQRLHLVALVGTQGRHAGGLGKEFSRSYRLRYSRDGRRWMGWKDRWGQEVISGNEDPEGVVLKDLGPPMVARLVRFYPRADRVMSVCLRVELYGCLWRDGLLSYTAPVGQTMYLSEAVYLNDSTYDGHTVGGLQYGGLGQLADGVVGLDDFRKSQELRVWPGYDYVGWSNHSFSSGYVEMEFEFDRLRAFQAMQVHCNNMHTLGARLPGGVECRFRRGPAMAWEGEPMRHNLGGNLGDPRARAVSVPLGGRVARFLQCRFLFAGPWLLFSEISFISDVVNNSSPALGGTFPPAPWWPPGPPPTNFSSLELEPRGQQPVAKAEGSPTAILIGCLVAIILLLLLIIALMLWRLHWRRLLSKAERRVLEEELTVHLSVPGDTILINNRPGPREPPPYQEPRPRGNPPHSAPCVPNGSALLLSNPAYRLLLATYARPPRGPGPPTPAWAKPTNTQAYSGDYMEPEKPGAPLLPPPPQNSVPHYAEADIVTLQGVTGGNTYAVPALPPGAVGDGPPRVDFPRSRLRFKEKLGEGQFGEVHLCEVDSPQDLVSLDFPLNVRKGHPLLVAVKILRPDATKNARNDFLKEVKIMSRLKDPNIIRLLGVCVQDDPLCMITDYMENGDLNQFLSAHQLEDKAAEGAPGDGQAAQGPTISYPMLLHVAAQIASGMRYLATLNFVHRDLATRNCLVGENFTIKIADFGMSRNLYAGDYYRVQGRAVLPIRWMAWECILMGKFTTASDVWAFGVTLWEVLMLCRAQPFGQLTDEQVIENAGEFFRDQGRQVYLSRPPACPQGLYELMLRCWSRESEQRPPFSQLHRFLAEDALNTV
EXPERIMENT SUMMARY: Measurement of DDR1 phosphorylation suppression rate by using T-47D cells (p-DDR1 ELISA)
CONDITION SET: collagen Type I 10 μg/ml, p-DDR1 (panTyr) ELISA
PROPERTY NAME: log10 of IC50 (log10 of the value in nM)
On a log10 scale: recorded IC50, unit nM.

Q. Return reported log10 of IC50. Input compound: CC(c1ccnc2[nH]ccc12)N1CCC(N2C(=O)CN(c3cncc(C(F)(F)F)c3)C2=O)CC1 (stereo not shown) [Example 10(1)]
A. 1.00

Q. Return reported log10 of IC50. Input compound: O=C1CN(c2cncc(C(F)(F)F)c2)C(=O)N1C12CCC(Oc3ncnc4[nH]cc(F)c34)(CC1)C2 [Example 42(1)]
A. 0.90

Q. Return reported log10 of IC50. Input compound: N#Cc1cncc(N2CC(=O)N(C34CCC(Oc5ncnc6[nH]ccc56)(CC3)C4)C2=O)c1 [Example 42(7)]
A. 2.30

Q. Return reported log10 of IC50. Input compound: Nc1nccc(Oc2ccc(N3C(=O)CN(c4cncc(C(F)(F)F)c4)C3=O)c(-c3ccccc3)c2)n1 [Example 3(122)]
A. 0.85

Q. Return reported log10 of IC50. Input compound: CCc1cc(N2C(=O)CN(c3cncc(C(F)(F)F)c3)C2=O)ccc1Oc1ccnc2[nH]ccc12 [Example 3(176)]
A. -1.00

Q. Return reported log10 of IC50. Input compound: O=C1CN(c2cncc(C3(C(F)(F)F)CCO3)c2)C(=O)N1c1ccc(Oc2cnc3[nH]ncc3c2)cc1 (stereo not shown) [Example 13]
A. 0.48

Q. Return reported log10 of IC50. Input compound: O=C1CN(c2cncc(C(F)(F)F)c2)C(=O)N1c1ccc(N2CCCc3cnccc32)c(Br)c1 [Example 8]
A. 1.85

* * *

PROPERTY NAME: IC50
I'd appreciate it if you wrote the number followed by its unit.

Q. Enter recorded IC50 with DDR1 (Homo sapiens, UniProt Q08345) for CC(C)c1cc(N2C(=O)CN(c3cc(C(F)(F)F)cn(C)c3=O)C2=O)ccc1Oc1ccnc2cc(OCCCS(C)(=O)=O)ccc12 here.
Sequence (Q08345 19-913): as above
A. 10 nM

Q. Enter recorded IC50 with DDR1 (Homo sapiens, UniProt Q08345) for CC#Cc1cc(Oc2ccnc(N)n2)ccc1N1C(=O)CN(c2cncc(C(F)(F)F)c2)C1=O here.
A. 7 nM

Q. Enter recorded IC50 with DDR1 (Homo sapiens, UniProt Q08345) for COc1cc2nccc(N3CCc4cc(N5C(=O)CN(c6cncc(C(F)(F)F)c6)C5=O)ccc43)c2cc1OC here.
A. 10 nM

* * *

TARGET OF ASSAY: DDR1 phosphorylation in T-47D (ATCC, HTB-133) cells (Homo sapiens, UniProt Q08345)
EXPERIMENT SUMMARY: Measurement of DDR1 phosphorylation suppression rate by using T-47D cells (p-DDR1 ELISA)
CONDITION SET: collagen Type I 10 μg/ml, p-DDR1 (panTyr) ELISA
Give measured IC50 for each item. Keep answers brief.
Lab book: enter the figure in nM, no units written.

Q. Return reported IC50. Input compound: O=C1CN(c2cncc(C(F)(F)F)c2)C(=O)N1C12CCC(Oc3ncnc4[nH]cc(Cl)c34)(CC1)C2 [Example 42(2)]
A. 20

Q. Return reported IC50. Input compound: COc1cc2nccc(N3CCc4cc(N5C(=O)CN(c6cncc(C(F)(F)F)c6)C5=O)ccc43)c2cc1OC [Example 9(1)]
A. 20

Q. Return reported IC50. Input compound: O=C1CN(c2cncc(C(F)(F)F)c2)C(=O)N1C12CCC(Oc3ccnc4[nH]ncc34)(CC1)C2 [Example 43]
A. 6
